src = patent US11707439B2

Test Description: Pharmacokinetic study in 10 healthy subjects: intravenous infusion vs oral capsules
Type: in vivo, human
Experimental Setup: human; Treatment A: single 50 mg dose, intravenous infusion over 180 minutes, fasted healthy subjects, plasma
Measured Parameter: Cmax (ng/mL)
Expressed in ng/mL, but write only the number.

Return reported Cmax. Input compound: `NC12CC3CC(CC(C3)C1)C2`
142

* * *

Test Description: Pharmacokinetic study in 10 healthy subjects: intravenous infusion vs oral capsules
Assay type: in vivo, human
Experimental Setup: human; Treatment A: single 50 mg dose, intravenous infusion over 180 minutes, fasted healthy subjects, plasma; read-out: mean apparent first-order elimination half-life (T1/2) (converted)
Measured Parameter: half-life (h)
Expressed in h, but write only the number.

Return reported half-life. Input compound: NC12CC3CC(CC(C3)C1)C2 [amantadine, 1-amantanamine]
14

* * *

Test Description: Pharmacokinetic study in 10 healthy subjects: intravenous infusion vs oral capsules
Type: in vivo, human
Experimental Setup: human, plasma, po, 200 mg, Treatment B: single 200 mg oral dose as 2×100 mg capsules, fasted healthy subjects, plasma; read-out: mean Tmax
Measured Parameter: Tmax (h)
Expressed in h, but write only the number.

Return reported Tmax. Input compound: `NC12CC3CC(CC(C3)C1)C2`
3.6
